System: M14 melanoma
assay-protocol: NCI tumour cell line growth inhibition, 48 h
readout-type: TGI

{"columns": ["molecule", "readout-type", "reading"],
 "data": [
  ["COc1ccc(S(=O)(=O)NNS(C)(=O)=O)cc1OC", "TGI", "> 100 µM"],
  ["CN(C)c1ccc(/C=C2\\N=C(c3ccccc3)N(c3nc4ccc(Sc5ccccc5)cc4[nH]3)C2=O)cc1", "TGI", "> 100 µM"],
  ["COc1ccc(C2CC(c3cccc(Nc4ccncc4)c3)=NN2c2ccccc2)cc1 (centres undefined)", "TGI", "3.74 µM"],
  ["Fc1nc(Sc2ncnc3nc[nH]c23)nc(-c2c3ccccc3c3sc4ccccc4n23)n1", "TGI", "> 100 µM"],
  ["CCOC(=O)CSc1nc(-c2ccc(Cl)cc2)c(C#N)c(=O)[nH]1", "TGI", "> 100 µM"],
  ["Nc1nc2c([nH]1)c1[nH]c3ccccc3c1c1[nH]c3ccccc3c21", "TGI", "27.8 µM"],
  ["Nc1cccc(C(=O)/C=C/c2ccccc2O)c1", "TGI", "> 100 µM"],
  ["O=C(Nc1nnc(-c2ccccc2)o1)C(SC(=S)N1CCCC1)c1ccccc1 (centres undefined)", "TGI", "> 100 µM"]
]}

Then this molecule:
Requested field: TGI. Item: COc1cc([N+](=O)[O-])c(S(=O)(=O)O)cc1-[n+]1nc(C(=O)Nc2ccccc2)nn1-c1ccc([N+](=O)[O-])c(S(=O)(=O)[O-])c1
> 100 µM

---

Tested on: UACC-257 melanoma
assay-protocol: NCI tumour cell line growth inhibition, 48 h
readout-type: TGI

Worked cases, answers included:
{"columns": ["molecule", "TGI"],
 "data": [
  ["Cc1cccc(NC(=O)CSc2nnc(-c3ccc(N=Cc4ccc(Cl)cc4)cc3)o2)c1", "> 100 µM"],
  ["COc1cc2c(cc1OC)C(C1CC1)ON(C)CC2 (configuration not stated)", "> 100 µM"],
  ["COc1ccc(-c2nn(-c3cccc(Cl)c3)cc2-c2c(C#N)c(=O)n3[nH]c(-c4ccc(C)o4)nc3c2C#N)cc1", "> 50 µM"],
  ["COC1=C(OC)C(=O)C(Cc2c(-c3ccccc3)nc3sc(Cl)cn23)=C(C)C1=O", "29.9 µM"],
  ["COc1ccc2c3c(c4cc(OC)c(OC)cc4c2c1)CN1CCC[C@H]1[C@@H]3O", "0.544 µM"],
  ["CC[C@]1(O)C[C@@H]2CN(CCc3c([nH]c4ccccc34)[C@@](C(=O)OC)(c3cc4c(cc3OC)N(C)[C@H]3[C@@](O)(C(=O)OC)[C@H](OC(=O)CCCBr)[C@]5(CC)C=CCN6CC[C@]43[C@@H]65)C2)C1", "> 100 µM"]
]}

Value sought for every listed molecule: TGI.
1. CN(C)CCCNC(=O)N/N=C/c1ccccn1
2. c1csc(-c2cc(-c3ccsc3)cs2)c1

> 10 µM
> 100 µM

Value sought for every listed molecule: TGI.
1. Cn1c(COC(=O)NC2CCCCC2)c(COC(=O)NC2CCCCC2)c2ccc3ccccc3c21
2. O=C(Nc1nnc(-c2ccccc2)o1)C(SC(=S)N1CCCC1)c1ccccc1 (configuration not stated)
3. O=C(Nc1ccc(-n2cc(-c3ccncc3)c(-c3ccc(Cl)c(O)c3)n2)cc1)c1ccc(Cl)c(Cl)c1
4. CC(CSc1nc2c(c(=N)n1-c1ccccc1)c(=S)n(-c1ccccc1)c(=S)n2-c1ccccc1)CN(C)C (configuration not stated)
5. Cc1ccc(/C=C2\CCCC(C(NO)c3ccc(C)cc3)C2=NO)cc1 (configuration not stated)
6. O=c1[nH]c2ccccc2c(=O)n1/N=C\c1ccccc1O

1. > 100 µM
2. > 100 µM
3. > 100 µM
4. 3.43 µM
5. > 100 µM
6. > 100 µM

Value sought for every listed molecule: TGI.
1. O=[N+]([O-])/C=C/c1cn(CCCCCCCCn2cc(/C=C/[N+](=O)[O-])c3ccccc32)c2ccccc12
2. CCOc1ccc(N=Nc2c(-c3ccccc3)nn(C(=O)CC(=O)Nc3ccccc3Cl)c2-c2ccccc2)cc1
3. CC[P+](c1ccccc1)(N(C)C)N(C)C
4. CC(C)C(Nc1c2ccccc2[n+](C)c2ccccc12)C(=O)O (configuration not stated)
5. O=C(NCCOC(=O)CCCCCCCCC(=O)OCCNC(=O)NC(=O)c1cn(Cc2ccccc2)c(=O)[nH]c1=O)NC(=O)c1cn(Cc2ccccc2)c(=O)[nH]c1=O
6. Cc1cc(C)c(C2=NO[C@@H]3[C@H]2C(=O)C=C2N(Cc4ccccc4)CCO[C@@]23O)c(C)c1

1: > 10 µM; 2: > 100 µM; 3: > 100 µM; 4: > 100 µM; 5: > 100 µM; 6: > 100 µM

Value sought for every listed molecule: TGI.
1. COc1cc(/C=C/C(=O)/C=C/c2ccc(-n3ccnc3)cc2)ccc1O
2. CNC(=O)N(CCCCC(NC(C)=O)C(=O)NCc1ccccc1)Cc1ccccc1 (configuration not stated)

11.5 µM
> 100 µM
